experiment: qHTS to identify inhibitors of the type 1 interferon - major histocompatibility complex class I in skeletal muscle: primary screen against the NCATS Pharmaceutical Collection (AID 1347407); conditions: human skeletal muscle cells, IFN-b-induced MHC-I HiBiT luminescence, 24 h; series mostly up to 45.9 µM;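 also: luminescence of HiBiT knocked into endogenous HLA-B as interferon-induced MHC class I level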
Inconclusive results are not listed. Active and inactive are the calls of the source. Calls follow the shape of the dose curve; as a rule, active = well fitted inhibition curve with a large enough effect; inconclusive = small, poorly fitted or top-dose-only effect; inactive = flat fitted curve, though single readings scatter.
One label from this list, please: active, inactive

In this assay, the call recorded for CCCc1nc(C)c2c(=O)[nH]c(-c3cc(S(=O)(=O)N4CCN(CC)CC4)ccc3OCC)nn12 was what?
inactive

----------
test: HepG2 cells viability qHTS for Zika virus inhibitors (AID 1347168); conditions: Zika counter-screen; series mostly up to 45.9 µM
Inconclusive results are not listed. Calls of active or inactive are those of the source. Calls come from the whole dose curve; as a rule, active = well fitted cell-killing curve with a large enough effect; inconclusive = small, poorly fitted or top-dose-only effect; inactive = flat fitted curve, though single readings scatter.
Permitted responses: YES (active), NO (inactive)

Some entries whose results are on file:
- MOLECULE: "CNC1CCCN(c2c(F)cc3c(=O)c(C(=O)O)cn(C4CC4)c3c2OC)C1 (stereo not given)"
  DISCRETE LABEL: "NO"
- MOLECULE: "OCc1ccc(-c2nn(Cc3ccccc3)c3ccccc23)o1"
  DISCRETE LABEL: "YES"
- MOLECULE: "CCn1cc(C(=O)O)c(=O)c2cc(F)c(N3CCNCC3)cc21"
  DISCRETE LABEL: "NO"
- MOLECULE: "O=C(O)c1ccc(-n2nc(-c3ccccc3O)nc2-c2ccccc2O)cc1"
  DISCRETE LABEL: "NO"

Give the logged outcome of this assay for the following molecule: O=C(O)c1cn(C2CC2)c2cc(N3CCNCC3)c(F)cc2c1=O
NO

So what was the verdict on CNC(=O)c1cc(Oc2ccc(NC(=O)Nc3ccc(Cl)c(C(F)(F)F)c3)cc2)ccn1 in this test?
YES

In this assay, the call recorded for CCCc1nc(C)c2c(=O)[nH]c(-c3cc(S(=O)(=O)N4CCN(CC)CC4)ccc3OCC)nn12 was what?
NO

Please state the recorded outcome for this molecule: COc1c(N2CCNC(C)C2)c(F)cc2c(=O)c(C(=O)O)cn(C3CC3)c12 (stereo not given)
NO

Just curious, what result did Nc1nc(N)c2nc(CNc3ccc(C(=O)NC(CCC(=O)O)C(=O)O)cc3)cnc2n1 (stereo not given) get here?
NO

Recorded test outcome, item Nc1nc(=S)c2[nH]cnc2[nH]1
NO
